Procedure Details: Oral pharmacokinetics (plasma, brain, CSF)
Assay type: in vivo, Sprague Dawley rats
Study Conditions: Sprague Dawley, po; rat, per os, 10 mg/kg, plasma
# Cmax >= 5000 ng/mL gives Condition met, anything below gives Condition not met

# Compound, Label Value
measured = [
    ("COc1ccc(CN2CC3(CCNC(=O)C3)C2=O)cc1 (racemic) [AA-rac]", "Condition met"),
    ("CCN1CCC2(CC1=O)CN(Cc1ccc(OC)cc1)C2=O (single isomer, unassigned) [CL]", "Condition not met"),
    ("COc1ccc(CN2C[C@@]3(CCNC(=O)C3)C2=O)cc1 [Compound AA-2]", "Condition met"),
    ("C[C@@H](O)[C@@H](C(=O)NCc1ccccc1)N1CC2(CCNC(=O)C2)C1=O (single isomer, unassigned) [CB]", "Condition not met"),
    ("COc1ccc(CN2C[C@]3(CCNC(=O)C3)C2=O)cc1 [AA-1]", "Condition met"),
]

Please turn your attention to the following entry.
Query string: Given the entry C[C@@H](O)[C@@H](C(=O)N(C)C)N1CC2(CCNC(=O)C2)C1=O (single isomer, unassigned) [CC] , answer whether its Cmax meets or surpasses 5000 ng/mL.
Result string: Condition not met

----------
Procedure Details: IV pharmacokinetics
Design: species or system Sprague Dawley rats
Study Conditions: Sprague Dawley, in vivo, rat, 2 mg/kg, normal saline
Observable: C0 (ng/mL)
State the answer as a number, implicitly in ng/mL.

Below: 6 compounds and their reported C0.
# Compound, Measured
rows = [
    ("COc1ccc(CN2CC3(CCN(C)C(=O)C3)C2=O)cc1 (single isomer, unassigned) [CI]", 2120),
    ("C[C@@H](O)[C@@H](C(=O)NCc1ccccc1)N1CC2(CCNC(=O)C2)C1=O (single isomer, unassigned) [CB]", 4320),
    ("COc1ccc(CN2C[C@@]3(CCNC(=O)C3)C2=O)cc1 [Compound AA-2]", 1990),
    ("COc1ccc(CN2C[C@]3(CCNC(=O)C3)C2=O)cc1 [AA-1]", 2340),
    ("C[C@@H](O)[C@@H](C(=O)N(C)C)N1CC2(CCNC(=O)C2)C1=O (single isomer, unassigned) [CC]", 7930),
    ("COc1ccc(CN2CC3(CCNC(=O)C3)C2=O)cc1 (racemic) [AA-rac]", 5790),
]

Next up:
Query string: Consider the compound shown here: CCN1CCC2(CC1=O)CN(Cc1ccc(OC)cc1)C2=O (single isomer, unassigned) [CL] What is its recorded C0?
Result string: 2690

----------
Procedure Details: Oral pharmacokinetics (plasma, brain, CSF)
Type: in vivo, Sprague Dawley rats
Study Conditions: rat, per os, 10 mg/kg, brain
Observable: Brain Cmax (ng/mL)
Response body: numeric value in ng/mL, unit text excluded.

# Molecule, Brain Cmax, ng/mL
rows = [
    ("COc1ccc(CN2CC3(CCNC(=O)C3)C2=O)cc1 (racemic)", 951),
    ("CCN1CCC2(CC1=O)CN(Cc1ccc(OC)cc1)C2=O (single isomer, unassigned)", 707.6),
    ("C[C@@H](O)[C@@H](C(=O)N(C)C)N1CC2(CCNC(=O)C2)C1=O (single isomer, unassigned)", 0),
    ("C[C@@H](O)[C@@H](C(=O)NCc1ccccc1)N1CC2(CCNC(=O)C2)C1=O (single isomer, unassigned)", 7.38),
    ("COc1ccc(CN2CC3(CCN(C)C(=O)C3)C2=O)cc1 (single isomer, unassigned)", 996.66),
]

Query string: Which Brain Cmax is listed for `COc1ccc(CN2C[C@@]3(CCNC(=O)C3)C2=O)cc1` ?
Result string: 1107.2

----------
Procedure Details: IV pharmacokinetics
Set-up: species or system Sprague Dawley rats
Study Conditions: Sprague Dawley, in vivo, rat, 2 mg/kg, normal saline
Observable: clearance (mL/min/kg)
The reply should contain only the number, in mL/min/kg.

Worked examples, 6 molecules total:
# Molecule, Measured
data = [
    ("COc1ccc(CN2CC3(CCNC(=O)C3)C2=O)cc1 (racemic)", 5.28),
    ("C[C@@H](O)[C@@H](C(=O)N(C)C)N1CC2(CCNC(=O)C2)C1=O (single isomer, unassigned)", 15.7),
    ("COc1ccc(CN2C[C@]3(CCNC(=O)C3)C2=O)cc1", 9.69),
    ("CCN1CCC2(CC1=O)CN(Cc1ccc(OC)cc1)C2=O (single isomer, unassigned)", 41.7),
    ("C[C@@H](O)[C@@H](C(=O)NCc1ccccc1)N1CC2(CCNC(=O)C2)C1=O (single isomer, unassigned)", 25.3),
    ("COc1ccc(CN2CC3(CCN(C)C(=O)C3)C2=O)cc1 (single isomer, unassigned)", 32),
]

Turning now to a further record.
Query string: Value lookup for clearance; key = `COc1ccc(CN2C[C@@]3(CCNC(=O)C3)C2=O)cc1`
Result string: 9.82

----------
Tgt: NMDAR2B expressing HEK cell membranes (Homo sapiens)
Construct: expressed in transfected cells; host or cells: HEK cells (membrane extract)
Procedure Details: NMDAR agonist assay, [3H]MK-801 binding, NMDAR2B
Type: biochemical
Study Conditions: 50 μM glutamate
Procedure: Assays were conducted as described by Moskal et al., “GLYX-13: a monoclonal antibody-derived peptide that acts as an N-methyl-D-aspartate receptor modulator,” Neuropharmacology, 49, 1077-87, 2005. These studies were designed to determine if the test compounds act to facilitate NMDAR activation in NMDAR2A, NMDAR2B, NMDAR2C or NMDAR2D expressing HEK cell membranes as measured by increases in [^3H]MK-801 binding. […]
Observable: NMDAR2B A: % maximal [3H]MK-801 binding relative to 1 mM glycine

# annotated cases, reported NMDAR2B A: % maximal [3H]MK-801 binding relative to 1 mM glycine shown
# Compound, Measured
rows = [
    ("NC(=O)CN1CC2(CCNC(=O)C2)C1=O (single isomer, unassigned)", "+ (<100%=+)"),
    ("COc1ccc(CN2CC3(CCNC(=S)C3)C2=S)cc1 (single isomer, unassigned) [CO]", "− (−=0)"),
    ("CN1CC2(CCNC(=O)C2)C1=O (single isomer, unassigned) [DG]", "− (−=0)"),
    ("O=C1CC2(CCN1)CN(Cc1ccccc1)C2=O (single isomer, unassigned)", "+ (<100%=+)"),
    ("CC1CC(=O)N(C)C12CN(CC(N)=O)C2=O (single isomer, unassigned)", "+ (<100%=+)"),
]

Query string: Can you share its NMDAR2B A: % maximal [3H]MK-801 binding relative to 1 mM glycine? I mean this compound: COc1ccc(CN2CC3(CCN(CC(C)C)C(=O)C3)C2=O)cc1 (single isomer, unassigned) [CT]
Result string: − (−=0)

Query string: # iterate: C[C@@H](O)[C@@H](C(=O)N(C)C)N1CC2(CCNC(=O)C2)C1=O (single isomer, unassigned)
Result string: + (<100%=+)

----------
Tgt: NMDAR2B expressing HEK cell membranes (Homo sapiens, UniProt Q05586+Q13224)
Construct: expressed in transfected cells; host or cells: HEK cells (membrane extract)
Sequence (Q13224 27-1484, other chains not shown): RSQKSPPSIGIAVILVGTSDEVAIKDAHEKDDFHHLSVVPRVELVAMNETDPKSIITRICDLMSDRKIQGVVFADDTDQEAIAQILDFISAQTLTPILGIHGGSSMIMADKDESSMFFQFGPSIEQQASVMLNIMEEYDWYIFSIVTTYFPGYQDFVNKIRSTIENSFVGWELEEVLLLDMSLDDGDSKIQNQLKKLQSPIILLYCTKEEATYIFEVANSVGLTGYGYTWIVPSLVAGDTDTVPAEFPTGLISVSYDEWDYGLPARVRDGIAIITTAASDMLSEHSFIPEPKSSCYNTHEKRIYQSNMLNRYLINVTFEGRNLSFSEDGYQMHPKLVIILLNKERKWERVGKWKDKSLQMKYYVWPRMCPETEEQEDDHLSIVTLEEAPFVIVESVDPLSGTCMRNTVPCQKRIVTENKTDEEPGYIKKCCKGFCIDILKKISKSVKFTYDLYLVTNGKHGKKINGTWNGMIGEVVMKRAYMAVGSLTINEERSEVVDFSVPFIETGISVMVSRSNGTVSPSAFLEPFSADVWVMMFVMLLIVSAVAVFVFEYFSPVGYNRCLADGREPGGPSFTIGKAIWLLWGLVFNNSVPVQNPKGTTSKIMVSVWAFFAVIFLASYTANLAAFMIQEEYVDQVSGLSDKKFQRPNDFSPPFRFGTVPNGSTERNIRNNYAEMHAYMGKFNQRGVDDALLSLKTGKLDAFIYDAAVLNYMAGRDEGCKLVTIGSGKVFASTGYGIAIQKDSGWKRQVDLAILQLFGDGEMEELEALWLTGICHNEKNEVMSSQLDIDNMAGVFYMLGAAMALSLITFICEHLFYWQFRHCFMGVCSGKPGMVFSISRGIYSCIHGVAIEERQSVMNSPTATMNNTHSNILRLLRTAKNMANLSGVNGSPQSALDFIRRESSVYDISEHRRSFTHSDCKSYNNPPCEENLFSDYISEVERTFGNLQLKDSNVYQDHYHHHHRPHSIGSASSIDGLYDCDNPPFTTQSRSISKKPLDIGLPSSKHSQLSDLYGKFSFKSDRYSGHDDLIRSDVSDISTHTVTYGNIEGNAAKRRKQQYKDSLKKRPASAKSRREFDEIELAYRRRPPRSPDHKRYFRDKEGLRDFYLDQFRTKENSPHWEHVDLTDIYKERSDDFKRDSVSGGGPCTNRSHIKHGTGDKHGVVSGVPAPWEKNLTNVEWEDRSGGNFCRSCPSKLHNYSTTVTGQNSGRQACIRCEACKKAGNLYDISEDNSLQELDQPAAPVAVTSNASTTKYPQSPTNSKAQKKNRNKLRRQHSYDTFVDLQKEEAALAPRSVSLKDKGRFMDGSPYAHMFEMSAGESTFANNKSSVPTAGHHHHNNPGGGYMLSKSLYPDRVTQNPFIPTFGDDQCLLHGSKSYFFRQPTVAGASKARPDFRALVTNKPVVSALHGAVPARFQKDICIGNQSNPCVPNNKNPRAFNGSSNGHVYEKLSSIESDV
Procedure Details: NMDAR agonist assay, [3H]MK-801 binding, NMDAR2B
Type: biochemical
Study Conditions: 0.25 h, 50 μM glutamate; read-out: NMDAR2B A: % maximal [3H]MK-801 binding relative to 1 mM glycine
Observable: Emax

Sample records with Emax:
# Compound, Observable, Measured
data = [
    ("COc1ccc(CN2CC3(CCNC(=S)C3)C2=O)cc1 (single isomer, unassigned) [CN]", "Emax", "< 100%"),
    ("CC(C)CN1CC2(CCNC(=O)C2)C1=O (single isomer, unassigned)", "Emax", "< 100%"),
    ("CC1CC(=O)N(c2ccc(F)cc2)C12CN(CC(N)=O)C2=O (centres unmarked) [CE]", "Emax", "0%"),
]

Query string: Form field: Emax recorded for CNC(=O)[C@H]([C@@H](C)O)N1CC2(CCNC(=O)C2)C1=O (some centres unmarked) [DA] with NMDAR2B expressing HEK cell membranes (Homo sapiens, UniProt Q05586+Q13224) (enter value)
Result string: 0%

Query string: Request: COc1ccc(CN2CC3(CCN(C)C(=O)C3)C2=O)cc1 (single isomer, unassigned)
Result string: < 100%

Query string: How about CC1CC(=O)N(c2ccc(F)cc2)C12CN(Cc1ccccc1)C2=O (single isomer, unassigned) [BX] ?
Result string: < 100%

Query string: Another compound: CC1CC(=O)N(C)C12CN(CC(N)=O)C2=O (single isomer, unassigned)
Result string: < 100%

Query string: How about C[C@@H](O)[C@@H](C(=O)N(C)C)N1CC2(CCNC(=O)C2)C1=O (single isomer, unassigned) ?
Result string: < 100%

----------
Tgt: NMDAR2B expressing HEK cell membranes (Homo sapiens, UniProt Q13224)
Construct: expressed in transfected cells; host or cells: HEK cells (membrane extract)
Sequence (Q13224 27-1484, other chains not shown): as above
Procedure Details: NMDAR agonist assay, [3H]MK-801 binding, NMDAR2B
Assay type: biochemical
Study Conditions: 50 μM glutamate
Observable: NMDAR2B A: % maximal [3H]MK-801 binding relative to 1 mM glycine

# Molecule, Measured
data = [
    ("COc1ccc(CN2CC3(CCNC(=S)C3)C2=S)cc1 (single isomer, unassigned) [CP]", "+ (<100%=+)"),
    ("CN1CCC2(CC1=O)CN(Cc1ccccc1)C2=O (single isomer, unassigned) [CX]", "+ (<100%=+)"),
    ("CN1CC2(CCNC(=O)C2)C1=O (single isomer, unassigned) [DH]", "++ (>100%=++)"),
    ("COc1ccc(CN2CC3(CCN(CC(C)C)C(=O)C3)C2=O)cc1 (single isomer, unassigned) [CS]", "++ (>100%=++)"),
]

Values from patent US12084444B2
